test: qHTS of pediatric cancer cell lines to identify multiple opportunities for drug repurposing: Primary screen for BT-37 cells (AID 1347094); settings: BT-37 viability, CellTiter-Glo luminescence, 48 h; series mostly up to 57.3 µM
Inconclusive results are not listed. Activity calls are given as the source filed them. Calls follow the shape of the dose curve; as a rule, active = well fitted cell-killing curve with a large enough effect; inconclusive = small, poorly fitted or top-dose-only effect; inactive = flat fitted curve, though single readings scatter.
Possible outcomes: Yes = active, No = inactive

Compound: CC(C)(C)c1nc2c3cc[nH]c(=O)c3c3cc(F)ccc3c2[nH]1
Category: No

Compound: COc1ccc2c(c1OC)C(=O)OC2[C@H]1c2c(cc3c(c2OC)OCO3)CCN1C (some centres undefined)
Category: Yes

Compound: CCCCC(=O)O[C@]1(C(=O)CO)[C@@H](C)C[C@H]2[C@@H]3CCC4=CC(=O)C=C[C@]4(C)[C@@]3(F)[C@@H](O)C[C@@]21C
Category: No

Compound: c1cncc(CN2CCC(n3ncc4c(N5CCOCC5)nc(-c5ccc6[nH]ccc6c5)nc43)CC2)c1
Category: Yes

Compound: C[C@H](NCc1ccc(OCc2cccc(F)c2)cc1)C(N)=O
Category: Yes

Compound: Cn1cc(-c2cnn3c(N)c(Br)c([C@H]4CCCNC4)nc23)cn1
Category: Yes

Compound: O=C(O)C[C@H](O)C[C@H](O)C=Cc1c(C2CC2)nc2ccccc2c1-c1ccc(F)cc1
Category: Yes

Compound: CC(=O)SCC(Cc1ccccc1)C(=O)NCC(=O)OCc1ccccc1 (centres undefined)
Category: Yes

Compound: C[N+](C)([O-])CCNc1ccc(NCC[N+](C)(C)[O-])c2c1C(=O)c1c(O)ccc(O)c1C2=O
Category: No
